experiment: basal RPMI8226 mitochondrial membrane potential changes, profiling panel, cell-based, JC-1 fluorescence, 24 h, 100 nL compound (AID 1169); settings: RPMI8226 myeloma, JC-1 mitochondrial potential fluorescence, higher = more signal; also: test concentration not given here
Grouping rule (z-score): Low (below -0.8), Medium (-0.8 to below -0.2), High (-0.2 or more)

# count of solved cases: 5
Exam item: assign `C=C[C@H](OC)[C@@H](OC(=O)Nc1ccc(SC)cc1)c1ccc(OC)c(O)c1` to the correct category.
High

Exam item: assign O=C(NCC(O)CO)[C@]1(Cc2ccccc2)N=C(c2ccc(OCCCO)cc2)O[C@@H]1c1ccccc1 (some centres undefined) to the correct category.
High

Exam item: assign `O=C1O[C@H](c2ccccc2)[C@H](c2ccccc2)N2[C@H]1[C@@H](C(=O)NC[C@H](O)c1ccccc1)[C@]1(C(=O)Nc3ccc(C#CC4(O)CCCCCC4)cc31)[C@H]2c1ccc(OCCO)cc1` to the correct category.
Low

Exam item: assign CC(C)C[C@@H]1NC(=O)[C@H](CC(C)C)NC(=O)[C@@]23C(=O)N[C@@H](Cc4ccccc4)C2[C@H](C)[C@@]2(C)O[C@H]2C3/C=C/CC/C=C/CNC1=O (some centres undefined) to the correct category.
Medium

Exam item: assign `O=C1c2ccccc2[C@](Cc2ccccc2I)(C(=O)NCC(F)(F)F)[C@H](c2ccc(CO)cc2)N1Cc1ccccc1C(F)(F)F` to the correct category.
Medium

Now for another entry.
Exam item: assign `C=C(CCCC)/C(=C/C[C@@H](OC(=O)c1ccncc1)c1cccc(OCCO)c1)c1cc(C(=O)OC)ccc1OC` to the correct category.
High

###

Provide the recorded z-score for the entries that follow.
test: cell viability in Huh7 cells, primary screen, cytotoxicity control for HCV replication inhibitor project, CellTiter-Glo luminescence, basal, 48 h (AID 1143); conditions: Huh7 HCV replicon, higher = more signal, called active from +8 up or from −8 down;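 also: Huh7 hepatoma cells carrying a hepatitis C replication reporter with no stimulus; test concentration not given here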
Answers are plain numbers.

Some molecules with known z-score results, for comparison:
Requested read-out: z-score. Entry: O=C1OCC=C[C@H]2OC34C=CCN(Cc5ccccc5)C(=O)[C@H]3N(CCCCCO)C(=O)[C@@H]4[C@@H]12 (some centres not stated)
-2.93

Requested read-out: z-score. Entry: CC(c1ccccc1)C(O)C1C=CC2C(=O)N(C)C(=O)C2N1N(c1ccccc1)c1ccccc1 (configuration not stated)
0.066

Requested read-out: z-score. Entry: `CN(C)CCCC[C@@H]1NC(=O)[C@@H]2C[C@H](C(=O)O)[C@H](c3ccc(O)cc3)N2C1=O`
-3.87

Parameters: items (list). Returns: z-score for each item.
1. Cc1ccc(S[C@]2(C(=O)NC(C)C)CC(=O)N(C3Cc4ccccc4C3)[C@@H]2c2ccc(CO)cc2)cc1
2. Cc1ccc(N2C(=O)c3ccccc3[C@](C)(C(=O)O)[C@@H]2c2ccc(CO)cc2)nc1
3. COCCOC(=O)N1C(=O)[C@@]2(c3cc(C#CCNC(N)=O)ccc31)[C@H](c1ccc(OCCO)cc1)N1[C@H](c3ccccc3)[C@H](c3ccccc3)OC(=O)[C@H]1[C@@H]2C(=O)Nc1nc2ccccc2s1
4. COCCCNC(=O)[C@@]1(Sc2ccc(C)cc2)CC(=O)N(Cc2cc(C(F)(F)F)cc(C(F)(F)F)c2)[C@@H]1c1ccc(CO)cc1I

1. -4.65
2. -0.718
3. -1.6
4. -1.47

###

assay: HepG2 liver cancer cell viability effects, profiling panel, resazurin fluorescence, 24 h, PK04 Diversity Set (AID 1172); details: higher = more signal; also: test concentration not given here
Provide the recorded z-score for the entries that follow.

Some molecules with known z-score results, for comparison:
Requested read-out: z-score. Entry: `O=C1O[C@H](c2ccccc2)[C@H](c2ccccc2)N2[C@H]1[C@@H](C(=O)Nc1nc3ccccc3s1)[C@]1(C(=O)Nc3ccc(C#CC4=CCCCC4)cc31)[C@H]2c1ccccc1OCCO`
0.111

Requested read-out: z-score. Entry: C#CCNC(/C=C/c1ccccc1)CO (centres undefined)
-0.316

Requested read-out: z-score. Entry: `CO[C@H]1COC(=O)[C@@H](Cc2ccccc2)NC(=O)[C@@H](C)COC(=O)CC=C[C@@H]1C`
0.344

Continuing:
Requested read-out: z-score. Entry: `NC(=O)NCC#Cc1ccc2c(c1)[C@]1(C(=O)N2)[C@H](C(=O)N2CCCCCCC2)[C@H]2C(=O)O[C@H](c3ccccc3)[C@H](c3ccccc3)N2[C@@H]1c1ccccc1OCCO`
0.237

###

biological target: Concanavalin-A (Canavalia ensiformis) (UniProt P02866); assay: ConA small-molecule binders, primary screen, artefact control for SMM control protein annotation, biochemical, small-molecule microarray, Alexa647 label, 635 nm (AID 1127); conditions: ConA-A647 binding fluorescence, higher = more signal;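 also: z combines 667 nm emission intensity with signal-to-noise across three replicate slides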
Sequence (P02866 whole entry, looked up): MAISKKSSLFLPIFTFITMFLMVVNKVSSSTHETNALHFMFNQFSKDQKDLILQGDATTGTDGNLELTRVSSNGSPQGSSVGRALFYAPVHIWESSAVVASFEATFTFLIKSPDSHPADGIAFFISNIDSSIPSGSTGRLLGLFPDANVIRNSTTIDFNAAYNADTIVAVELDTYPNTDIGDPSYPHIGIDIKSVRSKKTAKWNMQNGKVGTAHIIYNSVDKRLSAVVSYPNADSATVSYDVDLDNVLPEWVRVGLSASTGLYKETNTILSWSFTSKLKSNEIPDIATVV
Think of 1 as a floor: if composite z-score stands on it or above, it is t; beneath it, f.

# count of solved cases: 5
Quick check: does `CCOC(=O)C[C@H]1[C@H](OC(=O)Cc2ccc3c(c2)OCO3)[C@@H](NC(=O)c2ccc3ccccc3c2)c2cc(OCCCO)ccc2N1C(=O)Cc1ccc(OC)cc1` have composite z-score greater than or equal to 1?
f

Quick check: does `C=CCc1cccc([C@@H]2[C@@H](C)CC[C@H]3C(=O)N4[C@H](c5cccc(CC=C)c5)[C@@H](C)CC[C@H]4C(=O)N23)c1` have composite z-score greater than or equal to 1?
t

Quick check: does `O=C1C[C@@](C(=O)NC2CC2)(c2ccc([N+](=O)[O-])cc2)[C@@H](c2ccc(CO)cc2I)N1CC12CC3CC(CC(C3)C1)C2` have composite z-score greater than or equal to 1?
t

Quick check: does `CC(C)NC(=O)[C@@]1(Cc2ccccc2I)c2ccccc2C(=O)N(C2CCCCC2)[C@H]1c1ccc(CO)cc1` have composite z-score greater than or equal to 1?
t

Quick check: does `COC(=O)[C@@]1(Cc2ccc(OC)cc2)[C@H]2c3cc(C(=O)N(C)C)n(CCc4ccc(OC)c(Br)c4)c3C[C@H]2CN1C(=O)c1ccccc1` have composite z-score greater than or equal to 1?
t

Now for another entry.
Quick check: does `C=CCNC(=O)[C@H]1[C@@H]2C(=O)O[C@@H](c3ccccc3)[C@@H](c3ccccc3)N2[C@@H](c2ccccc2OCCO)[C@]12C(=O)N(C(=O)OCCOC)c1ccc(C#CCC(C(=O)OC)C(=O)OC)cc12` have composite z-score greater than or equal to 1?
t

###

target: Concanavalin-A (Canavalia ensiformis) (UniProt P02866); experiment: ConA small-molecule binders, primary screen, artefact control for SMM control protein annotation, biochemical, small-molecule microarray, Alexa647 label, 635 nm (AID 1127); details: ConA-A647 binding fluorescence, higher = more signal;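 also: z combines 667 nm emission intensity with signal-to-noise across three replicate slides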
Observable: composite z-score
Numbers only.

Some compounds with known composite z-score results, for comparison:
Requested read-out: composite z-score. Entry: `C=C[C@H](OC)[C@@H](OC(=O)Nc1ccc(SC)cc1)c1ccc(OC)c(O)c1`
-0.473

Requested read-out: composite z-score. Entry: `CC(C)(C)OC(=O)CC[C@]1(C(=O)NCCN2CCOCC2)N=C(c2ccc(OCCCO)cc2)O[C@H]1c1ccccc1CN=[N+]=[N-]`
0.922

Requested read-out: composite z-score. Entry: `CCOC(=O)C[C@H]1[C@H](OC(=O)Cc2ccc3c(c2)OCO3)[C@@H](NC(=O)CC(C)C)c2cc(OCCCO)ccc2N1C(=O)c1ccccc1`
-1.14

Requested read-out: composite z-score. Entry: `COCCOC(=O)N1C(=O)[C@@]2(c3cc(C#CC4=CCCCC4)ccc31)[C@H](c1ccc(O)cc1)N1[C@H](c3ccccc3)[C@H](c3ccccc3)OC(=O)[C@H]1[C@@H]2C(=O)N1CCCCCCC1`
1.12

Requested read-out: composite z-score. Entry: `Cc1ccc(S[C@]2(C(=O)NC(C)C)CC(=O)N(Cc3cc(C(F)(F)F)cc(C(F)(F)F)c3)[C@@H]2c2ccc(CO)cc2I)cc1`
-0.442

Requested read-out: composite z-score. Entry: `O=C1O[C@H](c2ccccc2)[C@H](c2ccccc2)N2[C@H]1[C@@H](C(=O)NC[C@H](O)c1ccccc1)[C@]1(C(=O)Nc3ccc(C#CC4=CCCCC4)cc31)[C@H]2c1ccc(OCCO)cc1`
1.11

Requested read-out: composite z-score. Entry: `CC(C)(C)OC(=O)CC[C@]1(C(=O)N2CCCCC2)N=C(c2ccc(OCCCO)cc2)O[C@H]1c1ccccc1`
1.13

Requested read-out: composite z-score. Entry: N#Cc1ccc(NN2C(C(O)CCc3ccccc3)C=CC3C(=O)N(c4ccccc4)C(=O)C32)cc1 (centres undefined)
0.831

Parameters: items (list). Returns: composite z-score for each item.
1. C=C(CCCC)/C(=C/C[C@@H](OC(=O)c1ccncc1)c1ccc(CO)o1)c1cnc2ccccc2c1
2. CO[C@@H]1COC(=O)[C@@H]2CCCN2C(=O)CC=C[C@@H](C)[C@H](OC)COC(=O)[C@@H]2CCCN2C(=O)CC=C[C@H]1C
3. CC[C@@H]1C=C(C(=O)O)[C@H](c2ccccc2)N1S(=O)(=O)c1ccc([N+](=O)[O-])cc1
4. COc1cccc([C@@H]2[C@@H](C)CC[C@H]3C(=O)N4[C@H](c5cccc(OC)c5)[C@@H](C)CC[C@H]4C(=O)N23)c1
5. CCCCCCc1nc(C2CC2)c(C)c2c1[Si](C(C)C)(C(C)C)OC2
6. CCOC(=O)C[C@H]1[C@H](OC(=O)c2ccccc2-c2ccccc2)[C@@H](NC(=O)C2CCCCC2)c2cc(OCCCO)ccc2N1C(=O)c1ccccc1

1. 1.18
2. -0.512
3. 0.942
4. 0.0858
5. -0.693
6. 0.404
